- experimental.protocol: Crystallization test of azoxystrobin solution upon dilution in water
- Type: physicochemical
- experimental.parameters: azoxystrobin solution (100 g/L) in the solvent diluted 1:20 in water
readout.kind: Observation by dilution

INSERT INTO measurements (molecule, readout_kind, value_observed) VALUES
  ('O=C1CCC2COC1O2 (stereo not shown) [dihydrolevoglucosenone, 6,8-dioxabicyclo[3.2.1]octan-4-one]', 'Observation by dilution', 'Two-phase'),
  ('CC(=O)OCC(COC(C)=O)OC(C)=O', 'Observation by dilution', 'Two-phase'),
  ('O=C1CCCO1', 'Observation by dilution', 'Immediate'),
  ('CN1CCCC1=O', 'Observation by dilution', 'Immediate');
